- target-entity: system Xc^− (Homo sapiens)
- Sequence (Q9UPY5 whole entry): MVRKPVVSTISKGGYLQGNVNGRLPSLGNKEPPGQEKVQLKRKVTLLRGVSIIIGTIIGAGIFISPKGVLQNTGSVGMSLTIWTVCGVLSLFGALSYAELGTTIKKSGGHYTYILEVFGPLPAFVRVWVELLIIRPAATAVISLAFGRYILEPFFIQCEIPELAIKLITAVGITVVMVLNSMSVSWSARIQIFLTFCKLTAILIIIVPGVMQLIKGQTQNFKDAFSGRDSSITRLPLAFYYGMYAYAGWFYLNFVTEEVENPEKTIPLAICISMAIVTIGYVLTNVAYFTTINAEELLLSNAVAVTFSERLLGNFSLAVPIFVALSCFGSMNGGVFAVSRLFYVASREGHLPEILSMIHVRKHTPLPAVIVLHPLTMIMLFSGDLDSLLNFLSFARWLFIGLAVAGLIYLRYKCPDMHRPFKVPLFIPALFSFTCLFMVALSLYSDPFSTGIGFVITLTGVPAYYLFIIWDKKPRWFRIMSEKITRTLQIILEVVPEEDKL
- Sequence (P08195 102-630 partner): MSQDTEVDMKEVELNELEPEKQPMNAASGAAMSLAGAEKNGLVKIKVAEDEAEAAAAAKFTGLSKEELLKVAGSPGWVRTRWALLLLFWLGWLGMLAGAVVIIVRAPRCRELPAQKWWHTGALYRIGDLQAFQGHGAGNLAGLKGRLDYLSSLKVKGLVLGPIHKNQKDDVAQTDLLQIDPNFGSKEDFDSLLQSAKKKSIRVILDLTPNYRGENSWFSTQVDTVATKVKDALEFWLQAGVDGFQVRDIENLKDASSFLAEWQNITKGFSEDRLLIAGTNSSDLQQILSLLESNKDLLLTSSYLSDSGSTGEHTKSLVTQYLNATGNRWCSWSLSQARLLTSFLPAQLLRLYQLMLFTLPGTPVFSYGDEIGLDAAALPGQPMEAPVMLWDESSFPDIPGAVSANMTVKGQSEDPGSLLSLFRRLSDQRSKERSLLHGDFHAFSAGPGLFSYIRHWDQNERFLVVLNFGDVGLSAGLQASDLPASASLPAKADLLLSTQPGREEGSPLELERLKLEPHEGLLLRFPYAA
- assay-notes: [^14C]L-Cystine uptake assay
- Format: cell-based
- Design: endogenous in cells; host or cells: H4 cells
- condition-details: H4 cells, sodium-free HEPES buffer, 0.5 μM L-[14C]Cystine and 4.5 μM L-Cystine, 1 hour at 37° C.; read-out: pIC50 [^14C] L-Cystine uptake assay (converted)
- Experimental: The effect of compounds of Formula (I) on the system Xc^− functionality was examined in two independent cell assays: (i) measurement of cystine-induced glutamate release; and (ii) measurement of [^14C]L-Cystine uptake. […] In this assay, the medium is devoid of sodium to prevent the transport of glutamate by sodium-dependent excitatory amino acid transporters (EAATs). […] After 1 hour at 37° C., plates were counted in a MicroBeta^2 microplate counter (PerkinElmer).
Item-by-item account of IC50

Here's what some known entries look like.
compound=CCn1c(C)cc2c(c1=O)-c1cccnc1CC(=O)N2CC(=O)Nc1ccc(C(F)(F)F)cc1 value="39.8 to 100 nM"
compound=Cc1cc2c(c(F)n1)-c1cccnc1[C@@H](C)C(=O)N2CC(=O)Nc1ccc(C2(F)CC2)c(F)c1 value="< 15.8 nM"

// query IC50 value for entry Cc1cc2c(c(F)n1)-c1cccnc1[C@@H](C)C(=O)N2CC(=O)Nc1ccc2c(cnn2C)c1
15.8 to 39.8 nM

Name the reported IC50 value associated with the compound Cc1cc2c(c(F)n1)-c1nccnc1C(C)C(=O)N2CC(=O)Nc1ccc(Cl)c(F)c1 (single isomer, unassigned)
39.8 to 100 nM

I have this compound here, Cc1cc2c(cn1)-c1cccnc1C(C)C(=O)N2CC(=O)Nc1ccc(C(F)F)c(F)c1 (single isomer, unassigned) , and I need its recorded IC50.
15.8 to 39.8 nM

Which IC50 is listed for CC1C(=O)N(CC(=O)Nc2ccc(Cl)c(F)c2)c2cc(Cl)cc(F)c2-c2cncnc21 (single isomer, unassigned) ?
< 15.8 nM

Can you look up the measured IC50 of O=C(CN1C(=O)Cc2ncccc2-c2c1cc(Cl)c(F)c2Cl)Nc1ccc(C(F)(F)F)cc1 for me?
100 to 501 nM

Query (compound): Cc1cc2c(c(F)n1)-c1cccnc1C(C)(F)C(=O)N2CC(=O)Nc1ccc(C(F)(F)F)cc1 (stereo not drawn) ; field requested: IC50
100 to 501 nM

Give its IC50 value. Item: COc1cc2c(c(C)n1)-c1cccnc1C(C)C(=O)N2CC(=O)Nc1ccc(Cl)c(F)c1 (single isomer, unassigned)
< 15.8 nM

Item COc1cc2c(c(Cl)n1)-c1ccnn1C(C)C(=O)N2CC(=O)Nc1ccc(Cl)c(F)c1 (single isomer, unassigned) has what recorded IC50?
15.8 to 39.8 nM

What value of IC50 has been reported for the following compound? Cc1cc2c(c(CO)n1)-c1ccccc1CC(=O)N2CC(=O)Nc1ccc(C(F)(F)F)cc1
39.8 to 100 nM

Need IC50 of Cc1cc2c(c(Cl)n1)-c1cccnc1C(C)C(=O)N2CC(=O)Nc1ccc(C(F)(F)F)cc1F (single isomer, unassigned) , thanks.
< 15.8 nM

Fill blank: measured IC50 of the compound CC1C(=O)N(CC(=O)Nc2ccc(C(F)F)cc2)c2cc(N3CCOCC3)nc(F)c2-c2cccnc21 (stereo not drawn) is ____.
< 15.8 nM

Give the measured IC50 of Cc1cc2c(c(C)n1)-c1cccnc1CC(=O)N2CC(=O)Nc1ccc(C(F)(F)F)cc1 .
15.8 to 39.8 nM

Can you look up the measured IC50 of Cc1ccc(NC(=O)CN2C(=O)Cc3cccnc3-c3cnc(Cl)cc32)cc1Cl for me?
100 to 501 nM

# credit: patent US20260217708A1
